Assay: DSSTox (CPDBAS) Carcinogenic Potency Database Summary MultiCellCall Results
Conditions: animal carcinogenicity bioassays, multi-cell call summary
Activity calls are given as the source filed them.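 The calls were made as follows: active = tumour findings in long-term animal cancer tests in more than one sex, species or organ; inactive = no tumour finding and more than one negative test.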
The reply should be one of these categories: TRUE = active, FALSE = inactive

Solved entries:
[Q] Recorded call for CC(C)Oc1ccc(Nc2ccccc2)cc1 ?
[A] FALSE

[Q] Also check OCC(CO)N[C@H]1C[C@](O)(CO)[C@@H](O)[C@H](O)[C@H]1O
[A] FALSE

[Q] Also check CCNc1nc(Cl)nc(NCC)n1
[A] FALSE

[Q] Also check O=C1CCO1
[A] TRUE

[Q] Also check Cc1cc(O)cc(C)c1N(C)C
[A] FALSE

---
[Q] Recorded call for OC[C@H]1O[C@H](O[C@]2(CCl)O[C@H](CCl)[C@@H](O)[C@@H]2O)[C@H](O)[C@@H](O)[C@H]1Cl ?
[A] FALSE

[Q] Also check CC(=O)CN(C)N=O
[A] TRUE

---

Assay: DSSTox (CPDBAS) Carcinogenic Potency Database Summary MultiCellCall Results
Details: animal carcinogenicity bioassays, multi-cell call summary
Activity calls are given as the source filed them.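 Rule for the calls: active = tumour findings in long-term animal cancer tests in more than one sex, species or organ; inactive = no tumour finding and more than one negative test.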
The reply should be one of these categories: active, inactive

Solved entries:
[Q] Recorded call for O=c1c(O)c(-c2ccc(O)cc2)oc2cc(O)cc(O)c12 ?
[A] inactive

[Q] Also check C=C(C)[C@H]1Cc2c(ccc3c2O[C@@H]2COc4cc(OC)c(OC)cc4[C@@H]2C3=O)O1
[A] inactive

[Q] Also check Cc1cc(C(C)(C)C)c(O)c(C(C)(C)C)c1
[A] active

[Q] Also check CC1(C)[C@@H](OC2O[C@H](C(=O)O)[C@@H](O)[C@H](O)[C@H]2O[C@H]2O[C@H](C(=O)O)[C@@H](O)[C@H](O)[C@H]2O)CC[C@]2(C)[C@H]3C(=O)C=C4[C@@H]5C[C@@](C)(C(=O)O)CC[C@]5(C)CC[C@@]4(C)[C@]3(C)CC[C@@H]12 (stereo partly drawn)
[A] inactive

[Q] Also check O=C1C2(Cl)C3(Cl)C4(Cl)C(Cl)(Cl)C5(Cl)C3(Cl)C1(Cl)C5(Cl)C24Cl (stereo not drawn)
[A] active

---
[Q] Recorded call for O=NN1CCOCC1 ?
[A] active

[Q] Also check CNNC
[A] active

[Q] Also check NS(=O)(=O)c1cc2c(cc1Cl)NCNS2(=O)=O
[A] inactive

---

Test: DSSTox (CPDBAS) Carcinogenic Potency Database Summary MultiCellCall Results
Conditions: animal carcinogenicity bioassays, multi-cell call summary
Active and inactive are the calls of the source.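 The calls were made as follows: active = tumour findings in long-term animal cancer tests in more than one sex, species or organ; inactive = no tumour finding and more than one negative test.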
The reply should be one of these categories: Yes for active, No for inactive

[Q] Recorded call for COS(C)(=O)=O ?
[A] Yes

[Q] Also check CC[N+](=O)[O-]
[A] No

[Q] Also check C=CCN(N)CC=C
[A] Yes

[Q] Also check Cc1c(COC(=O)C2C(/C=C(\Cl)C(F)(F)F)C2(C)C)cccc1-c1ccccc1 (stereo unspecified)
[A] No

[Q] Also check Cc1ccccc1[N+](=O)[O-]
[A] Yes

---
[Q] Recorded call for O=C(O)CCCc1ccc(N(CCCl)CCCl)cc1 ?
[A] Yes

[Q] Also check CC(=O)CN(N=O)C(N)=O
[A] Yes

[Q] Also check COc1cc2c(c3c1c(=O)c1ccccc1n3C)C=CC(C)(C)O2
[A] Yes

[Q] Also check CC(/C=C/C=C(\C)C(=O)O[C@@H]1O[C@H](CO[C@@H]2O[C@H](CO)[C@@H](O)[C@H](O)[C@H]2O)[C@@H](O)[C@H](O)[C@H]1O)=C\C=C\C=C(C)\C=C\C=C(/C)C(=O)O[C@@H]1O[C@H](CO[C@@H]2O[C@H](CO)[C@@H](O)[C@H](O)[C@H]2O)[C@@H](O)[C@H](O)[C@H]1O
[A] No

[Q] Also check COc1ccc(OC)c(/C=C/c2ccc(N)cc2)c1
[A] Yes

[Q] Also check COC(N)=O
[A] Yes

[Q] Also check Clc1ccc(C(c2ccc(Cl)cc2)C(Cl)(Cl)Cl)cc1
[A] Yes

[Q] Also check NC(=O)c1cccnc1
[A] No

[Q] Also check NC(=O)N(CCO)N=O
[A] Yes

[Q] Also check Cc1ccc(S(=O)(=O)Oc2ccc(N=Nc3ccc(-c4ccc(N=Nc5c(O)ccc6cc(S(=O)(=O)O)cc(S(=O)(=O)O)c56)c(C)c4)cc3C)cc2)cc1
[A] Yes

[Q] Also check CC(C)(C)c1cc([N+](=O)[O-])cc([N+](=O)[O-])c1OS(C)(=O)=O
[A] No

[Q] Also check O1[As]2O[As]3O[As]1O[As](O2)O3
[A] No

[Q] Also check O[C@H]([C@H](O)[C@@H](O)CBr)[C@H](O)CBr
[A] Yes

[Q] Also check CCN=[N+]([O-])CC
[A] Yes

[Q] Also check CCCCCN(N=O)C(=O)OCC
[A] Yes

[Q] Also check Cc1cccc(C)c1NC(=O)CN1CCCC1=O
[A] No
